Tested on: E. coli HB101 cell-free extract prepared in the absence of plasmid
Assay type: biochemical
Conditions: oxidation reaction; substrate 50 mM
Attribute: Host only activity
The reply should be a number in U/mg, with the unit left off.

Some solved entries appear below for comparison.
compound	parameter.measured	measured.number
C[C@H](O)[C@H](C)O [(2S,3S)-2,3-butanediol]	Host only activity	0
C[C@H](O)CCO [(S)-1,3-butanediol]	Host only activity	0
OC[C@@H](O)CCl [(R)-3-chloro-1,2-propanediol]	Host only activity	0

Let's switch to this compound now.
Reported Host only activity ( CC(=O)C(C)O (stereo not shown) [3-hydroxy-2-butanone] ) = 0.006
